- assay.summary: Cmax in nude NCR mouse at 12.5 mg/kg, po
- Type: ADME, organism-based
- Design: dose 12.5 mg/kg, route oral
- experimental.context: in vivo
measure.name: Cmax (µM)
One number for each entry, in µM.

Returns the measured Cmax for the input compound. Input: Cc1ncc(CCCN(C)C)cc1Nc1ncc2c(n1)-c1ccc(C(F)(F)F)cc1NC(=S)C2 0.72

###

- assay.summary: Drug uptake in tumor of nude mouse xenografted with human HT-29 cells at 50 mg/kg, po after 72 hrs
- Format: ADME, organism-based, Neoplasm
- Parameters: dose 50 mg/kg, route oral
- experimental.context: read-out: Drug uptake
measure.name: concentration at 72 h

Cc1ncc(CCCN(C)C)cc1Nc1ncc2c(n1)-c1ccc(Cl)cc1NC(=S)C2 ... 60.3 nM

// concentration at 72 h lookup, key: Cc1ncc(CCCN(C)C)cc1Nc1ncc2c(n1)-c1ccc(C(F)(F)F)cc1NC(=S)C2 376 nM
